Give Tmax for every item shown.
experiment.description: in vivo
test.context: male, Sprague-Dawley, rat, plasma, po, 4.8 g/kg
Numbers only, in h.

Illustrative cases are given below, each with its answer.
molecule	measurement.unit	Tmax
O=C(CC(O)(CC(=O)OCc1ccc(O[C@@H]2O[C@H](CO)[C@@H](O)[C@H](O)[C@H]2O)cc1)C(=O)O)OCc1ccc(O[C@@H]2O[C@H](CO)[C@@H](O)[C@H](O)[C@H]2O)cc1	h	0.94
O=C(O)CC(O)(CC(=O)OCc1ccc(O[C@@H]2O[C@H](CO)[C@@H](O)[C@H](O)[C@H]2O)cc1)C(=O)OCc1ccc(O[C@@H]2O[C@H](CO)[C@@H](O)[C@H](O)[C@H]2O)cc1 (some centres unmarked)	h	1
O=C(CC(O)(CC(=O)OCc1ccc(O[C@@H]2O[C@H](CO)[C@@H](O)[C@H](O)[C@H]2O)cc1)C(=O)OCc1ccc(O[C@@H]2O[C@H](CO)[C@@H](O)[C@H](O)[C@H]2O)cc1)OCc1ccc(O[C@@H]2O[C@H](CO)[C@@H](O)[C@H](O)[C@H]2O)cc1	h	0.94
N[C@@H](CCC(=O)N[C@@H](CSCc1ccc(O)cc1)C(=O)NCC(=O)O)C(=O)O [4-HBG, S-(4-hydroxybenzyl) glutathione]	h	3.5

Below: the item to evaluate.
Request: Identify Tmax associated with the molecule O=C(O)CC(O)(CC(=O)OCc1ccc(O[C@@H]2O[C@H](CO)[C@@H](O)[C@H](O)[C@H]2O)cc1)C(=O)O (some centres unmarked)
Response: 1.13

###

experiment.description: in vivo
test.context: male, Sprague-Dawley, rat, in vivo, po, 4.8 g/kg
measured.parameter: MRT last (min)
Give bare numbers, in min.

Request: Quote MRT last reported for OCc1ccc(O[C@@H]2O[C@H](CO)[C@@H](O)[C@H](O)[C@H]2O)cc1 [GAS, gastrodin] please.
Response: 49.8

###

experiment.description: Plasma pharmacokinetics of GEB constituents after oral GEB extract in normal and MCAO rats (UPLC-MS/MS, non-compartmental)
test.context: plasma, MCAO rats, oral GEB extract 4.8 g/kg, n = 8
measured.parameter: AUC0-t

Reference set (3 entries):
compound	result.value
O=C(CC(O)(CC(=O)OCc1ccc(O[C@@H]2O[C@H](CO)[C@@H](O)[C@H](O)[C@H]2O)cc1)C(=O)OCc1ccc(O[C@@H]2O[C@H](CO)[C@@H](O)[C@H](O)[C@H]2O)cc1)OCc1ccc(O[C@@H]2O[C@H](CO)[C@@H](O)[C@H](O)[C@H]2O)cc1	75.4 ± 29.3 ng·h/mL
O=C(CC(O)(CC(=O)OCc1ccc(O[C@@H]2O[C@H](CO)[C@@H](O)[C@H](O)[C@H]2O)cc1)C(=O)O)OCc1ccc(O[C@@H]2O[C@H](CO)[C@@H](O)[C@H](O)[C@H]2O)cc1	30.1 ± 9.6 ng·h/mL
N[C@@H](CCC(=O)N[C@@H](CSCc1ccc(O)cc1)C(=O)NCC(=O)O)C(=O)O [4-HBG, S-(4-hydroxybenzyl) glutathione]	124.8 ± 51.3 ng·h/mL

Parameter requested: AUC0-t. Apply to each item below.
1. O=C(O)CC(O)(CC(=O)OCc1ccc(O[C@@H]2O[C@H](CO)[C@@H](O)[C@H](O)[C@H]2O)cc1)C(=O)O (stereo partly drawn)
2. OCc1ccc(O[C@@H]2O[C@H](CO)[C@@H](O)[C@H](O)[C@H]2O)cc1

Response:
["1,107.5 ± 517.6 ng*h/mL", "4,835.6 ± 790.9 ng*h/mL"]

Request: Complete the entry with AUC0-t for O=C(O)CC(O)(CC(=O)OCc1ccc(O[C@@H]2O[C@H](CO)[C@@H](O)[C@H](O)[C@H]2O)cc1)C(=O)OCc1ccc(O[C@@H]2O[C@H](CO)[C@@H](O)[C@H](O)[C@H]2O)cc1 (stereo partly drawn)
Response: 108.0 ± 48.8 ng·h/mL

###

experiment.description: Plasma pharmacokinetics of GEB constituents after oral GEB extract in normal and MCAO rats (UPLC-MS/MS, non-compartmental)
test.context: plasma, MCAO rats, oral GEB extract 4.8 g/kg, n = 8
Would you mind telling me the reported Cmax of each entry?
Give bare numbers, in ng/mL.

molecule	result.value
O=C(CC(O)(CC(=O)OCc1ccc(O[C@@H]2O[C@H](CO)[C@@H](O)[C@H](O)[C@H]2O)cc1)C(=O)O)OCc1ccc(O[C@@H]2O[C@H](CO)[C@@H](O)[C@H](O)[C@H]2O)cc1	12.1

Then this molecule:
Request: Give reported Cmax value for O=C(O)CC(O)(CC(=O)OCc1ccc(O[C@@H]2O[C@H](CO)[C@@H](O)[C@H](O)[C@H]2O)cc1)C(=O)OCc1ccc(O[C@@H]2O[C@H](CO)[C@@H](O)[C@H](O)[C@H]2O)cc1 (stereo partly drawn)
Response: 48.8

###

experiment.description: Brain tissue distribution of GEB constituents after oral GEB extract in normal and MCAO rats
Format: in vivo
test.context: male, Sprague-Dawley, rat, brain, oral, 1200 mg/kg; MCAO rats, 12 h post-final dosing
measured.parameter: concentration at 12 h (ng/g)
Answers are plain numbers, in ng/g.

Request: Tell us which concentration at 12 h value is on record for O=C(O)CC(O)(CC(=O)OCc1ccc(O[C@@H]2O[C@H](CO)[C@@H](O)[C@H](O)[C@H]2O)cc1)C(=O)O (stereo partly shown) [PE, Parishin E]
Response: 4.25

###

experiment.description: Plasma pharmacokinetics of GEB constituents after oral GEB extract in normal and MCAO rats (UPLC-MS/MS, non-compartmental)
test.context: plasma, MCAO rats, oral GEB extract 4.8 g/kg, n = 8
measured.parameter: Vz/F (L/kg)
Answers are plain numbers, in L/kg.

molecule	Vz/F (L/kg)
O=C(O)CC(O)(CC(=O)OCc1ccc(O[C@@H]2O[C@H](CO)[C@@H](O)[C@H](O)[C@H]2O)cc1)C(=O)O (stereo partly drawn)	113.9
N[C@@H](CCC(=O)N[C@@H](CSCc1ccc(O)cc1)C(=O)NCC(=O)O)C(=O)O [4-HBG, S-(4-hydroxybenzyl) glutathione]	186.8
OCc1ccc(O[C@@H]2O[C@H](CO)[C@@H](O)[C@H](O)[C@H]2O)cc1	2.7
O=C(CC(O)(CC(=O)OCc1ccc(O[C@@H]2O[C@H](CO)[C@@H](O)[C@H](O)[C@H]2O)cc1)C(=O)O)OCc1ccc(O[C@@H]2O[C@H](CO)[C@@H](O)[C@H](O)[C@H]2O)cc1	543.6

For the next question, use this molecule.
Request: Complete the entry with Vz/F for `O=C(CC(O)(CC(=O)OCc1ccc(O[C@@H]2O[C@H](CO)[C@@H](O)[C@H](O)[C@H]2O)cc1)C(=O)OCc1ccc(O[C@@H]2O[C@H](CO)[C@@H](O)[C@H](O)[C@H]2O)cc1)OCc1ccc(O[C@@H]2O[C@H](CO)[C@@H](O)[C@H](O)[C@H]2O)cc1`
Response: 1706.9

###

experiment.description: in vivo
test.context: male, Sprague-Dawley, rat, plasma, po, 4.8 g/kg
measured.parameter: half-life (h)
Answers are plain numbers, in h.

Some entries whose results are on file:
compound	result.value
N[C@@H](CCC(=O)N[C@@H](CSCc1ccc(O)cc1)C(=O)NCC(=O)O)C(=O)O [4-HBG, S-(4-hydroxybenzyl) glutathione]	2.27
O=C(CC(O)(CC(=O)OCc1ccc(O[C@@H]2O[C@H](CO)[C@@H](O)[C@H](O)[C@H]2O)cc1)C(=O)O)OCc1ccc(O[C@@H]2O[C@H](CO)[C@@H](O)[C@H](O)[C@H]2O)cc1	1.84
O=C(O)CC(O)(CC(=O)OCc1ccc(O[C@@H]2O[C@H](CO)[C@@H](O)[C@H](O)[C@H]2O)cc1)C(=O)O (stereo partly shown)	1.82

Next, consider the following compound.
Request: Provide only the value of recorded half-life for `O=C(CC(O)(CC(=O)OCc1ccc(O[C@@H]2O[C@H](CO)[C@@H](O)[C@H](O)[C@H]2O)cc1)C(=O)OCc1ccc(O[C@@H]2O[C@H](CO)[C@@H](O)[C@H](O)[C@H]2O)cc1)OCc1ccc(O[C@@H]2O[C@H](CO)[C@@H](O)[C@H](O)[C@H]2O)cc1`
Response: 0.74

###

Would you mind telling me the reported Vd/F of each entry?
experiment.description: in vivo
test.context: male, Sprague-Dawley, rat, plasma, po, 4.8 g/kg
Give bare numbers, in L/kg.

compound	Vd/F (L/kg)
N[C@@H](CCC(=O)N[C@@H](CSCc1ccc(O)cc1)C(=O)NCC(=O)O)C(=O)O [4-HBG, S-(4-hydroxybenzyl) glutathione]	212

# ---- query compound ----
Request: Tell me its Vd/F given O=C(O)CC(O)(CC(=O)OCc1ccc(O[C@@H]2O[C@H](CO)[C@@H](O)[C@H](O)[C@H]2O)cc1)C(=O)O (some centres unmarked) as the entry.
Response: 78.6
